Target of assay: Mouse LRP-8 expressed on HEK293 cells (mouse) (UniProt Q924X6)
Assay remarks: cell-based binding on MOUSE LRP8-HEK293, supernatant 1:25
Assay readout: fold over isotype control (fold)
Note: unit fold is implicit; provide only the numeric part.

Past entries and their recorded results:
>>> numeric_readout("BGK-7F7 (GENOVAC candidate clone of Table 17) (antibody, V domains shown) VH: QVTLKESGPGILQPSQTLSLTCTFSGFSLSTYGLGVGWIRQPSGKGLEWLANIWWDDAKYYNPSLKNRLTISKDTSNNQAFLKIPNVDTADTARYYCARTTKPYYFDYWGQGVMVTVSS VL: HFVLAQPNSVSTNLGSTVKLSCKRSTANIGSNYVNWYQQHEGRSPTTLIYRDDRRPDGVPDRFSGSIDRSSNSALLTINNVQTEDEADYFCQSYSSGINIFGGGTKLTVL")
21.6
>>> numeric_readout("anti-LRP-8 BGK.2C8.E6.D3 [r/m IgG2a/K] (antibody, V domains shown) VH: QVTLKESGPGILQPSQTLSLTCTFSGFSLNTYGMGVGWVRQPSGKGLEWLANIWWDDDKFYNPSLKNRLTVSKDTSNNQAFLRITNGDTADTATYFCARILGEDIGGALDAWGQGTSVTVSS VL: DTVLTQSPALAVSPGERVSISCRASEGVNSYMHWYQQNPGQQSKLLIYRTSNLASGVPARFGGSGSGTDFTLTIDPVEADDTATYFCQQSWNDPPTFGGGTKLELK")
0.45
>>> numeric_readout("anti-LRP-8 BGK.6E3.F4 [r/m IgG2a/K] (antibody, V domains shown) VH: EVQLVESGGGLVQPGKSLKLSCAASGFTFSDYNMAWVRQAPKKGLEWVATIMYDGSRTFYRDSVKGRYTFSRDNAKSTLYLQMDSLRSEDTATYYCATGRNWFAYWGQGTLVTVSS VL: DIIMTQSPSSLAVSAGETVTINCKSSQSLLSSGKQKNYLAWYQQKPGQSPKLLIYLASTRESGVPDRFIGSGSGTDFTLTISSMQAEDLAIYYCQQHYDTPLTFGSGTKLEIK")
0.44

Now examine the next entry.
Noted for anti-LRP-8 BGK.5D10.E4 [r/m IgG2a/K] (antibody, V domains shown) VH: QVQLRETGPDLVQPTQTLSLTCTVSGFSLTNYPVQWVRQPPGSGLEWLGIMWPSGAADFNPALKSRLSISRDTSKSQFFLRMDNLQTDDTAIYFCARGRGYSSPYAMDAWGQGTSVTVSS VL: DIQMTQSPASLSASLGETVSIECLASEDIYNNLAWYQQKPGKSPHLLIHFTSNLQDGVPSRFSGSGSGTQYSLKINSLESEDGATYFCLQDSEYPLTFGSGTKLEIK : its fold over isotype control reads 0.16
